Recorded Kd for the following molecules
target: human uPAR (uPAR-Fc) (Homo sapiens, UniProt Q03405); construct: comprising amino acids Leu23-Arg303 according to UniProt entry Q03405.1; purchased R&D Systems 10378-UK-100; assay: Surface plasmon resonance (SPR) assay, single cycle kinetics; assay type: binding; settings: pKD category for uPAR SPR activity assay; uPAR-Fc on Protein A-Chip, single cycle kinetics, 25°C; read-out: pKD CAT (converted)
Sequence (Q03405 23-303): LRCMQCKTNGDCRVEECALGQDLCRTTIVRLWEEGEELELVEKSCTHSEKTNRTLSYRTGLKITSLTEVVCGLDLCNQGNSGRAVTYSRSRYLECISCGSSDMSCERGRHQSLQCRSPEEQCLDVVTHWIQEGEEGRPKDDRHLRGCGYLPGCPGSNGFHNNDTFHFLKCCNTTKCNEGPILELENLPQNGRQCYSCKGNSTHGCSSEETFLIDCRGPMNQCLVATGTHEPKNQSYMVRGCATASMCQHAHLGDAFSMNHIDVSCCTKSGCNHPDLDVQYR
Where a SMILES comes first, the peptide text is derived from it. Bridges are numbered along the chain shown (N, C = ends). [ ]: non-standard residue; d: D form. The star is where a group is joined. Pro(cis-4-F) = O=C(O)[C@@H]1C[C@H](F)CN1; Hyp = O=C(O)[C@@H]1C[C@@H](O)CN1; Pentanoyl(4-Me) = CC(C)CCC(=O)*; Cit = NC(=O)NCCC[C@H](N)C(=O)O; Butoxycarbonyl = CCCCOC(=O)*; Nva = CCC[C@H](N)C(=O)O

{"columns": ["molecule", "Kd"],
 "data": [
  ["CC[C@H](C)[C@@H]1NC(=O)[C@@H](C)NC(=O)[C@@H]2CCCN2C(=O)[C@H](Cc2ccccc2)NC(=O)[C@H](Cc2ccc(O)cc2)NC(=O)[C@H](CC(=O)O)NC(=O)[C@H](CCCNC(N)=O)NC(=O)[C@@H](NC(=O)CCC(C)C)CSSC[C@@H](C(N)=O)NC(=O)[C@H](CC(C)C)NC1=O [UPAR-434] ({Pentanoyl(4-Me)}-C[Cit]DYFP[dA]ILC-NH2; disulfide 1-10)", "< 1.58 nM"]
]}

Kd measured on CCCCOC(=O)N[C@H]1CSSC[C@@H](C(N)=O)NC(=O)[C@H](CCC)NC(=O)[C@H]([C@@H](C)CC)NC(=O)[C@@H]2C[C@@H](O)CN2C(=O)[C@@H]2C[C@H](F)CN2C(=O)[C@H](Cc2ccccc2)NC(=O)[C@H](Cc2ccc(O)cc2)NC(=O)[C@H](CCC(N)=O)NC(=O)[C@H]([C@@H](C)O)NC1=O [UPAR-358] (Butoxycarbonyl-CTQYF[Pro(cis-4-F)][Hyp]I[Nva]C-NH2; disulfide 1-10) = < 1.58 nM

---

molecular target: human uPAR (uPAR-Fc) (Homo sapiens); construct: comprising amino acids Leu23-Arg303 according to UniProt entry Q03405.1; purchased R&D Systems 10378-UK-100; assay: Surface plasmon resonance (SPR) assay, single cycle kinetics; format: binding; conditions: pKD category for uPAR SPR activity assay; uPAR-Fc on Protein A-Chip, single cycle kinetics, 25°C; read-out: pKD CAT (converted)
Where a SMILES comes first, the peptide text is derived from it. Bridges are numbered along the chain shown (N, C = ends). [ ]: non-standard residue; d: D form. The star is where a group is joined. DOTA = O=C(O)CN1CCN(CC(=O)O)CCN(CC(=O)*)CCN(CC(=O)O)CC1; Gly(cPent) = N[C@H](C(=O)O)C1CCCC1; Hyp = O=C(O)[C@@H]1C[C@@H](O)CN1; NMeQ = CN[C@@H](CCC(N)=O)C(=O)O; Pentanoyl(4-Me) = CC(C)CCC(=O)*; 2Thi = N[C@@H](Cc1cccs1)C(=O)O; Cit = NC(=O)NCCC[C@H](N)C(=O)O; Nva = CCC[C@H](N)C(=O)O; Hexanoyl = CCCCCC(=O)*; Pentanoyl = CCCCC(=O)*; Aib = CC(C)(N)C(=O)O
Each entry below lists one item and its recorded Kd value.

# example entries with known answers
{"columns": ["compound", "Kd"],
 "data": [
  ["CC[C@H](C)[C@@H]1NC(=O)[C@@H](C)NC(=O)[C@@H]2CCCN2C(=O)[C@H](Cc2ccccc2)NC(=O)[C@H](Cc2ccc(O)cc2)NC(=O)[C@H](CCC(N)=O)N(C)C(=O)[C@H](CCCNC(N)=O)NC(=O)[C@@H](NC(=O)CCC(C)C)CSSC[C@@H](C(N)=O)NC(=O)[C@H](CC(C)C)NC1=O [UPAR-407] ({Pentanoyl(4-Me)}-C[Cit][NMeQ]YFP[dA]ILC-NH2; disulfide 1-10)", "10 to 100 nM"],
  ["CCCCCC(=O)N[C@@H](CC(=O)O)C(=O)N[C@@H](CC(C)C)C(=O)N[C@H]1CSSC[C@@H](C(N)=O)NC(=O)[C@H](CC(C)C)NC(=O)[C@H]([C@@H](C)CC)NC(=O)[C@H](C)NC(=O)[C@@H]2CCCN2C(=O)[C@H](Cc2ccccc2)NC(=O)[C@H](Cc2ccc(O)cc2)NC(=O)[C@H](CCCCNC(=O)CN2CCN(CC(=O)O)CCN(CC(=O)O)CCN(CC(=O)O)CC2)NC(=O)[C@H](CCCNC(=N)N)NC1=O [UPAR-427] (Hexanoyl-DLCRK(DOTA)YFPAILC-NH2; disulfide 3-12)", "< 1.58 nM"],
  ["CC(C)CCC(=O)N[C@H]1CSSC[C@@H](C(N)=O)NC(=O)[C@H](CC(C)C)NC(=O)[C@H](C2CCCC2)NC(=O)[C@@H](C)NC(=O)[C@@H]2CCCN2C(=O)[C@H](Cc2ccccc2)NC(=O)[C@H](Cc2ccc(O)cc2)NC(=O)[C@H](CCC(N)=O)NC(=O)[C@H](CCCNC(N)=O)NC1=O [UPAR-349] ({Pentanoyl(4-Me)}-C[Cit]QYFP[dA][Gly(cPent)]LC-NH2; disulfide 1-10)", "1.58 to 10 nM"],
  ["CCCCC(=O)N[C@H]1CSSC[C@@H](C(N)=O)NC(=O)[C@H](CCC)NC(=O)[C@H]([C@@H](C)CC)NC(=O)[C@@H]2C[C@@H](O)CN2C(=O)[C@@H]2CCCN2C(=O)[C@H](Cc2cccs2)NC(=O)[C@H](Cc2ccc(O)cc2)NC(=O)[C@H](CCCCNC(=O)CN2CCN(CC(=O)O)CCN(CC(=O)O)CCN(CC(=O)O)CC2)NC(=O)[C@H](CCCNC(N)=O)NC1=O [UPAR-360] (Pentanoyl-C[Cit]K(DOTA)Y[2Thi]P[Hyp]I[Nva]C-NH2; disulfide 1-10)", "< 1.58 nM"],
  ["CCC[C@@H]1NC(=O)[C@H]([C@@H](C)CC)NC(=O)[C@@H]2C[C@@H](O)CN2C(=O)[C@@H]2CCCN2C(=O)[C@H](Cc2ccccc2)NC(=O)[C@H](Cc2ccc(O)cc2)NC(=O)[C@H](CCC(N)=O)NC(=O)[C@H](CCCNC(=N)N)NC(=O)[C@@H](NC(=O)[C@H](Cc2ccccc2)NC(C)=O)CSSC[C@@H](C(N)=O)NC1=O [UPAR-488] (Ac-FCRQYFP[Hyp]I[Nva]C-NH2; disulfide 2-11)", "< 1.58 nM"]
]}

Note: attention shifts to another entry.
Query CCCCC(=O)N[C@H]1CSSC[C@@H](C(N)=O)NC(=O)[C@H](CCC)NC(=O)[C@H]([C@@H](C)CC)NC(=O)[C@@H]2C[C@@H](O)CN2C(=O)C(C)(C)NC(=O)[C@H](Cc2ccccc2)NC(=O)[C@H](Cc2ccc(O)cc2)NC(=O)[C@H](CCCCNC(=O)CN2CCN(CC(=O)O)CCN(CC(=O)O)CCN(CC(=O)O)CC2)NC(=O)[C@H]([C@@H](C)O)NC1=O [UPAR-419] (Pentanoyl-CTK(DOTA)YF[Aib][Hyp]I[Nva]C-NH2; disulfide 1-10) yields Kd of 10 to 100 nM
